This collection of values is drawn from paper PMC1184061.

- assayTarget: zif268 DBD R18D/E21N (DN) (UniProt P08046 331-420, R349D;E352N)
- procedureDetails: EMSA (Scatchard x QuMFRA); derived; 30 mM Tris-HCl pH 8.0, 50 mM NaCl, 0.1 mg/ml BSA, 3 mM DTT, 20 uM ZnSO4, 5 ug/ml poly(dI-dC), 1 h on ice; 10% polyacrylamide gel
propertyName: Ka

Some binders with known Ka results, for comparison:
Zif_5 (AA) (dsDNA) DNA 1: TCGAGGTCGACGGTATCGCGTGGGAACTCCACTAGTTCTAGAGCGGCCGCCAC DNA 2: GTGGCGGCCGCTCTAGAACTAGTGGAGTTCCCACGCGATACCGTCGACCTCGA    4.8 10^6 M-1
Zif_1 (CG) (dsDNA) DNA 1: TCGAGGTCGACGGTATCGCGTGGGCGCTCCACTAGTTCTAGAGCGGCCGCCAC DNA 2: GTGGCGGCCGCTCTAGAACTAGTGGAGCGCCCACGCGATACCGTCGACCTCGA    1.2 10^6 M-1
Zif_3 (CC) (dsDNA) DNA 1: TCGAGGTCGACGGTATCGCGTGGGCCCTCCACTAGTTCTAGAGCGGCCGCCAC DNA 2: GTGGCGGCCGCTCTAGAACTAGTGGAGGGCCCACGCGATACCGTCGACCTCGA    3.1 10^6 M-1
Zif_2 (CA) (dsDNA) DNA 1: TCGAGGTCGACGGTATCGCGTGGGCACTCCACTAGTTCTAGAGCGGCCGCCAC DNA 2: GTGGCGGCCGCTCTAGAACTAGTGGAGTGCCCACGCGATACCGTCGACCTCGA    1.4 10^6 M-1

For reference, reported Ka for Zif_6 (AC) (dsDNA) DNA 1: TCGAGGTCGACGGTATCGCGTGGGACCTCCACTAGTTCTAGAGCGGCCGCCAC DNA 2: GTGGCGGCCGCTCTAGAACTAGTGGAGGTCCCACGCGATACCGTCGACCTCGA stands at 14 10^6 M-1
